Parameter: mass density. Scope: all listed entries.
# experimental-parameters: 298.15 K; 100 kPa; Liquid; Vibrating tube method
A number alone suffices; assume kg/m3.

molecule	mass density, kg/m3
CC1CCCCC1 [methylcyclohexane]	765.06
CCCCCCCCCCCCCC(=O)OC [methyl tetradecanoate]	863.35
CCCCCCCCCC(=O)OC [methyl decanoate]	868.16

QUERY: Fill in: mass density of CCCCCCCCCCCC(=O)OC [methyl dodecanoate] is ___
RESULT: 865.39

* * *

# experimental-parameters: 293.15 K; 100 kPa; Liquid; Falling or rolling sphere viscometry
± gives the expanded uncertainty stated by the source.
Each record here notes measured viscosity.
Phrase the answer as number then unit, nothing more needed.

Some solved cases for reference:
compound	viscosity
CC1CCCCC1 [methylcyclohexane]	0.733 ± 0.016 mPa·s
CCCCCCCCCC(=O)OC [methyl decanoate]	2.125 ± 0.047 mPa·s
CCCCCCCCCCCC(=O)OC [methyl dodecanoate]	3.151 ± 0.067 mPa·s

Moving on to another compound below.
QUERY: Item under review: CCCCCCCCCCCCCC(=O)OC [methyl tetradecanoate] . Reported viscosity?
RESULT: 4.557 ± 0.1 mPa·s
